All figures here come from PubChem BioAssay (NCATS).

Test system: CP329
METHOD_SUMMARY: qHTS profiling for inhibitors of Plasmodium falciparum proliferation (AID 504749); further: nearly all actives have a fitted effect of over 60% in size; further: potency means the concentration at half of the fitted maximal effect
CONDITION_INFO: P. falciparum in erythrocytes, SYBR Green DNA, 72 h; series mostly up to 28.7 µM
Records with an inconclusive call do not appear. The source made the active and inactive calls. The call rests on the fitted dose curve; in most records, active means well fitted inhibition curve with a large enough effect; inconclusive means small, poorly fitted or top-dose-only effect; inactive means flat fitted curve, though single readings scatter.
PARAMETER: Potency

COMPOUND: O=C1CC[C@@]2(O)C3Cc4ccc(O)c5c4C2(CCN3CC2CC2)[C@H]1O5 (some centres undefined)
PARAMETER: Potency
REPORTED_VALUE: inactive
//
COMPOUND: c1csc(C2(N3CCCCC3)CCCCC2)c1
PARAMETER: Potency
REPORTED_VALUE: inactive
//
COMPOUND: CCC1(c2ccccc2)C(=O)NC(=O)N(C)C1=O (centres undefined)
PARAMETER: Potency
REPORTED_VALUE: inactive
//
COMPOUND: CC(=O)O[C@H]1CC[C@H]2[C@@H]3CCC4=CC(=O)CCC4=C3C=C[C@]12C
PARAMETER: Potency
REPORTED_VALUE: inactive
//
COMPOUND: Oc1cccc[c]1[Hg][Cl]
PARAMETER: Potency
REPORTED_VALUE: 9.53 µM (active)
//
COMPOUND: CCCCNCC(O)c1ccc(O)cc1 (centres undefined)
PARAMETER: Potency
REPORTED_VALUE: inactive
//
COMPOUND: [O]=[Cd]
PARAMETER: Potency
REPORTED_VALUE: inactive
//
COMPOUND: CC(C)(C)c1cc(O)ccc1O
PARAMETER: Potency
REPORTED_VALUE: inactive
//
COMPOUND: c1ccc2cc(CC3=NCCN3)ccc2c1
PARAMETER: Potency
REPORTED_VALUE: inactive
//
COMPOUND: CCC(N)Cc1c[nH]c2ccccc12 (centres undefined)
PARAMETER: Potency
REPORTED_VALUE: inactive

Input line: Report measured Potency; entry is `O=c1[nH]cc(N(CCCl)CCCl)c(=O)[nH]1`
Output line: inactive

Input line: // fetch Potency given entry `CCC1(c2ccccc2)C(=O)NC(=O)NC1=O`
Output line: inactive

Input line: Specify reported Potency for the compound shown: `COc1ccc2c3c1O[C@H]1C(=O)CC[C@H]4[C@@H](C2)N(C)CC[C@]314`
Output line: inactive

###

TARGET: Cytochrome P450 3A4 (Homo sapiens)
METHOD_SUMMARY: qHTS Assay for Inhibitors and Substrates of Cytochrome P450 3A4 (AID 884); further: nearly all actives have a fitted effect of over 50% in size; further: potency means the concentration at half of the fitted maximal effect
CONDITION_INFO: recombinant CYP3A4, Luciferin-PPXE luminescence; series mostly up to 57.1 µM
Results filed as inconclusive are left out. Active and inactive are the calls of the source. Calls follow the shape of the dose curve; as a rule, active = well fitted inhibition curve with a large enough effect; inconclusive = small, poorly fitted or top-dose-only effect; inactive = no such curve, though single readings can be large or run the other way.
PARAMETER: Potency

Solved entries:
COMPOUND: O=C1C=C2C=C[C@@H]3C[C@@]2(O1)[C@H]1CCCCN31
PARAMETER: Potency
REPORTED_VALUE: inactive
--
COMPOUND: O=C1C=CC(=O)C=C1
PARAMETER: Potency
REPORTED_VALUE: inactive
--
COMPOUND: O=C(O)C(Cl)(Cl)Cl
PARAMETER: Potency
REPORTED_VALUE: inactive
--
COMPOUND: O=C/C=C/c1ccccc1
PARAMETER: Potency
REPORTED_VALUE: inactive
--
COMPOUND: CC(N)Cc1ccc(O)cc1 (stereo not drawn)
PARAMETER: Potency
REPORTED_VALUE: inactive
--
COMPOUND: ClCC1CO1 (stereo not drawn)
PARAMETER: Potency
REPORTED_VALUE: inactive
--
COMPOUND: Oc1cc(Cl)c(Cl)cc1Cl
PARAMETER: Potency
REPORTED_VALUE: inactive
--
COMPOUND: COc1ccc(OC)c(C(O)C(C)N)c1 (stereo not drawn)
PARAMETER: Potency
REPORTED_VALUE: inactive
--
COMPOUND: O=[N+]([O-])c1ccc(F)c([N+](=O)[O-])c1
PARAMETER: Potency
REPORTED_VALUE: inactive
--
COMPOUND: CCS(=O)(=O)Nc1cccc(C(=C2CCCCC2)c2cnc[nH]2)c1
PARAMETER: Potency
REPORTED_VALUE: 0.316 µM (active)

Input line: Supply Potency value. Item: `O=S1(=O)N(CCN2CC=C(c3c[nH]c4cc(F)ccc34)CC2)c2cccc3c2N1CCC3`
Output line: 5.01 µM (active)

Input line: State its Potency for this compound: `ClC=C(Cl)Cl`
Output line: inactive

Input line: # return recorded Potency for entry `CN(N=O)c1ccc(O)c(O)c1`
Output line: inactive

Input line: Give recorded Potency. `COC1=CC(=O)O[C@@H](/C=C/c2ccccc2)C1`
Output line: inactive

Input line: For `c1ccc2c(c1)[I+]c1ccccc1-2` , write its Potency.
Output line: 3.16 µM (active)
